TESTED ON: Immunoglobulin G
Where no end group is shown, it is not given here.
MEASURED QUANTITY: Kd (nM)

GSYWYDVWF (not fully specified) [linear peptide IgG binder (… peptide)]    600
